target: covalently linked WNV NS2B-NS3 protease construct (West Nile virus); experiment: enzyme inhibition kinetics (Ki from Dixon plots, fluorogenic substrate); WNV NS2B-NS3 construct ~4 nM in assay; substrate Phac-Leu-Lys-Lys-Arg-AMC 50, 100 and 200 µM (KM = 47.5 µM); 100 mM Tris pH 8.5, 20% glycerol, 0.01% Triton X-100; room temperature; Ki the average of at least two measurements
List of log10(Ki) values.
// units: µM (pre-log); metric: Ki; scale: log10

For orientation, consider the following solved cases.
Query :: Answer with the recorded log10(Ki) of 4-(guanidinomethyl)-phenylacetyl-Lys-Lys-Arg-NH2 (peptide) only.
Result :: -0.96

Query :: Quote log10(Ki) reported for Phac-Lys-Lys-Arg-Val-NH2 (peptide) please.
Result :: 2.02

Query :: Report log10(Ki) for 4-AMe-Phac-Lys-Lys-Arg-NH2 (peptide)
Result :: -0.42

Query :: Indicate its recorded log10(Ki); the substance in question is 4-Phenyl-Phac-Lys-Lys-Arg-NH2 (peptide)
Result :: -0.28

Query :: State its log10(Ki) for this substance: α-Cyclohexylglycine-Lys-Lys-Arg-NH2 (peptide)
Result :: 1.42

Query :: Quote log10(Ki) reported for AC-D/L-α-phenylglycine-Lys-Lys-Arg-NH2 (peptide) please.
Result :: 0.62

Query :: Please report log10(Ki) for the following substance: D/L-α-phenylglycine-Lys-Lys-Arg-NH2 (peptide)
Result :: 0.56

Query :: Quickly give me recorded log10(Ki) for Phac-Lys-Lys-Arg-Pro-NH2 (peptide)
Result :: 2.30

Let us examine a further case.
Query :: Answer with the recorded log10(Ki) of 3,4-Cl2-Phac-Lys-Lys-Arg-NH2 (peptide) only.
Result :: 0.05
